B1: tRNA (parent)
chain: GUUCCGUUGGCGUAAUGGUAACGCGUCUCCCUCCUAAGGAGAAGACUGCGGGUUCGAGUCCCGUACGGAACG

Variants of: B1
ASSAY_NOTES: yeast fitness, log relative to wild type (ln ratio); higher = fitter; tRNA-Arg(CCU), competitive growth, 37 C, 1 M NaCl
PARAMETER_MEASURED: yeast fitness (ln)
Give the figure only, with no unit attached.

U2C C27U C46U A69G C71U: -0.104
G6U C66U A69G A70G: -0.271
G1A U2C G6A C46U C66U: -0.16

--- query ---
# yeast fitness (ln) (variant: G1A G6A C27U C46U C66U A70G C71U ) is -0.21
